Test system: SK-MEL-28
measurement-protocol: Growth inhibition of human SK-MEL-28 cells at 10 uM after 48 hrs by sulforhodamine B assay
Format: functional, cell-based
Calls of active or inactive are those of the source. The calls are words filed in the database; no cut-off is given here.
Possible outcomes: y = active, n = inactive

>>> class_assignment("O=C1/C(=C\\c2cccn2Cc2ccc(Cl)cc2)c2ccccc2N1c1c(Cl)cccc1Cl")
"n"
>>> class_assignment("O=C1/C(=C\\c2cccn2C(=O)c2ccc(Cl)s2)c2ccccc2N1c1c(Cl)cccc1Cl")
"n"
>>> class_assignment("O=C1/C(=C\\c2cccn2Cc2ccccc2)c2ccccc2N1c1c(Cl)cccc1Cl")
"y"
>>> class_assignment("O=C1/C(=C\\c2ccc[nH]2)c2ccccc2N1c1c(Cl)cccc1Cl")
"n"
>>> class_assignment("O=C1/C(=C\\c2cccn2C(=O)c2ccc(Cl)cc2)c2ccccc2N1c1c(Cl)cccc1Cl")
"n"
>>> class_assignment("Cc1ccc(S(=O)(=O)n2cccc2/C=C2\\C(=O)N(c3c(Cl)cccc3Cl)c3ccccc32)cc1")
"n"
>>> class_assignment("O=C1/C(=C\\c2cccn2Cc2ccc(F)cc2)c2ccccc2N1c1c(Cl)cccc1Cl")
"n"
>>> class_assignment("O=C1/C(=C\\c2cccn2C(=O)c2ccccc2)c2ccccc2N1c1c(Cl)cccc1Cl")
"n"

###

Test system: SW-620
measurement-protocol: Growth inhibition of human SW620 cells at 10 uM after 48 hrs by sulforhodamine B assay
Type: functional, cell-based
The source made the active and inactive calls. No cut-off for these calls is given here.
Outcomes: active, inactive

>>> class_assignment("O=C1/C(=C\\c2cccn2C(=O)c2ccc(Cl)s2)c2ccccc2N1c1c(Cl)cccc1Cl")
"inactive"
>>> class_assignment("O=C1/C(=C\\c2cccn2Cc2ccc(F)cc2)c2ccccc2N1c1c(Cl)cccc1Cl")
"inactive"
>>> class_assignment("O=C1/C(=C\\c2cccn2Cc2ccc(Cl)cc2)c2ccccc2N1c1c(Cl)cccc1Cl")
"inactive"
>>> class_assignment("Cc1ccc(S(=O)(=O)n2cccc2/C=C2\\C(=O)N(c3c(Cl)cccc3Cl)c3ccccc32)cc1")
"inactive"
>>> class_assignment("O=C1/C(=C\\c2ccc[nH]2)c2ccccc2N1c1c(Cl)cccc1Cl")
"inactive"
>>> class_assignment("O=C1/C(=C\\c2cccn2C(=O)c2ccc(Cl)cc2)c2ccccc2N1c1c(Cl)cccc1Cl")
"inactive"
>>> class_assignment("O=C1/C(=C\\c2cccn2C(=O)c2ccccc2)c2ccccc2N1c1c(Cl)cccc1Cl")
"inactive"
>>> class_assignment("O=C1/C(=C\\c2cccn2Cc2ccccc2)c2ccccc2N1c1c(Cl)cccc1Cl")
"active"

###

System: EKVX
measurement-protocol: Growth inhibition of human EKVX cells at 10 uM after 48 hrs by sulforhodamine B assay
Assay type: functional, cell-based
Active and inactive are the calls of the source. The rule behind the calls is not given here.
Classes used: active, inactive

>>> class_assignment("O=C1/C(=C\\c2cccn2Cc2ccc(Cl)cc2)c2ccccc2N1c1c(Cl)cccc1Cl")
"inactive"
>>> class_assignment("O=C1/C(=C\\c2cccn2Cc2ccccc2)c2ccccc2N1c1c(Cl)cccc1Cl")
"active"
>>> class_assignment("O=C1/C(=C\\c2cccn2C(=O)c2ccc(Cl)cc2)c2ccccc2N1c1c(Cl)cccc1Cl")
"inactive"
>>> class_assignment("Cc1ccc(S(=O)(=O)n2cccc2/C=C2\\C(=O)N(c3c(Cl)cccc3Cl)c3ccccc32)cc1")
"inactive"
>>> class_assignment("O=C1/C(=C\\c2cccn2C(=O)c2ccc(Cl)s2)c2ccccc2N1c1c(Cl)cccc1Cl")
"inactive"
>>> class_assignment("O=C1/C(=C\\c2cccn2Cc2ccc(F)cc2)c2ccccc2N1c1c(Cl)cccc1Cl")
"inactive"
>>> class_assignment("O=C1/C(=C\\c2cccn2C(=O)c2ccccc2)c2ccccc2N1c1c(Cl)cccc1Cl")
"inactive"
>>> class_assignment("O=C1/C(=C\\c2ccc[nH]2)c2ccccc2N1c1c(Cl)cccc1Cl")
"inactive"

###

Tested on: 786-0
measurement-protocol: Growth inhibition of human 786-0 cells at 10 uM after 48 hrs by sulforhodamine B assay
Format: functional, cell-based
Calls of active or inactive are those of the source. The calls are words filed in the database; no cut-off is given here.
Outcomes: active, inactive

>>> class_assignment("O=C1/C(=C\\c2cccn2Cc2ccc(Cl)cc2)c2ccccc2N1c1c(Cl)cccc1Cl")
"inactive"
>>> class_assignment("O=C1/C(=C\\c2cccn2C(=O)c2ccc(Cl)cc2)c2ccccc2N1c1c(Cl)cccc1Cl")
"inactive"
>>> class_assignment("O=C1/C(=C\\c2cccn2Cc2ccc(F)cc2)c2ccccc2N1c1c(Cl)cccc1Cl")
"inactive"
>>> class_assignment("Cc1ccc(S(=O)(=O)n2cccc2/C=C2\\C(=O)N(c3c(Cl)cccc3Cl)c3ccccc32)cc1")
"inactive"
>>> class_assignment("O=C1/C(=C\\c2cccn2C(=O)c2ccc(Cl)s2)c2ccccc2N1c1c(Cl)cccc1Cl")
"inactive"
>>> class_assignment("O=C1/C(=C\\c2cccn2Cc2ccccc2)c2ccccc2N1c1c(Cl)cccc1Cl")
"active"
>>> class_assignment("O=C1/C(=C\\c2ccc[nH]2)c2ccccc2N1c1c(Cl)cccc1Cl")
"inactive"
>>> class_assignment("O=C1/C(=C\\c2cccn2C(=O)c2ccccc2)c2ccccc2N1c1c(Cl)cccc1Cl")
"inactive"

###

System: MOLT-4
measurement-protocol: Growth inhibition of human MOLT4 cells at 10 uM after 48 hrs by sulforhodamine B assay
Assay type: functional, cell-based
Active and inactive are the calls of the source. No cut-off for these calls is given here.
Labels: 1 = active, -1 = inactive

>>> class_assignment("O=C1/C(=C\\c2cccn2C(=O)c2ccc(Cl)cc2)c2ccccc2N1c1c(Cl)cccc1Cl")
-1
>>> class_assignment("O=C1/C(=C\\c2cccn2Cc2ccc(Cl)cc2)c2ccccc2N1c1c(Cl)cccc1Cl")
-1
>>> class_assignment("Cc1ccc(S(=O)(=O)n2cccc2/C=C2\\C(=O)N(c3c(Cl)cccc3Cl)c3ccccc32)cc1")
-1
>>> class_assignment("O=C1/C(=C\\c2cccn2C(=O)c2ccccc2)c2ccccc2N1c1c(Cl)cccc1Cl")
-1
>>> class_assignment("O=C1/C(=C\\c2cccn2Cc2ccccc2)c2ccccc2N1c1c(Cl)cccc1Cl")
1
>>> class_assignment("O=C1/C(=C\\c2cccn2Cc2ccc(F)cc2)c2ccccc2N1c1c(Cl)cccc1Cl")
-1
>>> class_assignment("O=C1/C(=C\\c2cccn2C(=O)c2ccc(Cl)s2)c2ccccc2N1c1c(Cl)cccc1Cl")
-1
>>> class_assignment("O=C1/C(=C\\c2ccc[nH]2)c2ccccc2N1c1c(Cl)cccc1Cl")
-1

###

Test system: SN12C
measurement-protocol: Growth inhibition of human SN12C cells at 10 uM after 48 hrs by sulforhodamine B assay
Type: functional, cell-based
Calls of active or inactive are those of the source. The rule behind the calls is not given here.
Labels: active, inactive

>>> class_assignment("O=C1/C(=C\\c2cccn2C(=O)c2ccc(Cl)s2)c2ccccc2N1c1c(Cl)cccc1Cl")
"inactive"
>>> class_assignment("Cc1ccc(S(=O)(=O)n2cccc2/C=C2\\C(=O)N(c3c(Cl)cccc3Cl)c3ccccc32)cc1")
"inactive"
>>> class_assignment("O=C1/C(=C\\c2cccn2C(=O)c2ccccc2)c2ccccc2N1c1c(Cl)cccc1Cl")
"inactive"
>>> class_assignment("O=C1/C(=C\\c2cccn2Cc2ccc(Cl)cc2)c2ccccc2N1c1c(Cl)cccc1Cl")
"inactive"
>>> class_assignment("O=C1/C(=C\\c2ccc[nH]2)c2ccccc2N1c1c(Cl)cccc1Cl")
"inactive"
>>> class_assignment("O=C1/C(=C\\c2cccn2Cc2ccc(F)cc2)c2ccccc2N1c1c(Cl)cccc1Cl")
"inactive"
>>> class_assignment("O=C1/C(=C\\c2cccn2Cc2ccccc2)c2ccccc2N1c1c(Cl)cccc1Cl")
"active"
>>> class_assignment("O=C1/C(=C\\c2cccn2C(=O)c2ccc(Cl)cc2)c2ccccc2N1c1c(Cl)cccc1Cl")
"inactive"

###

System: UO-31
measurement-protocol: Growth inhibition of human UO31 cells at 10 uM after 48 hrs by sulforhodamine B assay
Type: functional, cell-based
Active and inactive are the calls of the source. The calls are words filed in the database; no cut-off is given here.
Possible outcomes: TRUE = active, FALSE = inactive

>>> class_assignment("Cc1ccc(S(=O)(=O)n2cccc2/C=C2\\C(=O)N(c3c(Cl)cccc3Cl)c3ccccc32)cc1")
"FALSE"
>>> class_assignment("O=C1/C(=C\\c2cccn2C(=O)c2ccccc2)c2ccccc2N1c1c(Cl)cccc1Cl")
"FALSE"
>>> class_assignment("O=C1/C(=C\\c2cccn2Cc2ccccc2)c2ccccc2N1c1c(Cl)cccc1Cl")
"TRUE"
>>> class_assignment("O=C1/C(=C\\c2cccn2Cc2ccc(F)cc2)c2ccccc2N1c1c(Cl)cccc1Cl")
"FALSE"
>>> class_assignment("O=C1/C(=C\\c2ccc[nH]2)c2ccccc2N1c1c(Cl)cccc1Cl")
"FALSE"
>>> class_assignment("O=C1/C(=C\\c2cccn2C(=O)c2ccc(Cl)cc2)c2ccccc2N1c1c(Cl)cccc1Cl")
"FALSE"
>>> class_assignment("O=C1/C(=C\\c2cccn2Cc2ccc(Cl)cc2)c2ccccc2N1c1c(Cl)cccc1Cl")
"FALSE"
>>> class_assignment("O=C1/C(=C\\c2cccn2C(=O)c2ccc(Cl)s2)c2ccccc2N1c1c(Cl)cccc1Cl")
"FALSE"

###

Test system: KM12
measurement-protocol: Growth inhibition of human KM12 cells at 10 uM after 48 hrs by sulforhodamine B assay
Assay type: functional, cell-based
The source made the active and inactive calls. No cut-off for these calls is given here.
Classes used: TRUE (active), FALSE (inactive)

>>> class_assignment("O=C1/C(=C\\c2cccn2Cc2ccc(F)cc2)c2ccccc2N1c1c(Cl)cccc1Cl")
"FALSE"
>>> class_assignment("O=C1/C(=C\\c2cccn2Cc2ccc(Cl)cc2)c2ccccc2N1c1c(Cl)cccc1Cl")
"FALSE"
>>> class_assignment("O=C1/C(=C\\c2cccn2C(=O)c2ccccc2)c2ccccc2N1c1c(Cl)cccc1Cl")
"FALSE"
>>> class_assignment("O=C1/C(=C\\c2cccn2C(=O)c2ccc(Cl)cc2)c2ccccc2N1c1c(Cl)cccc1Cl")
"FALSE"
>>> class_assignment("O=C1/C(=C\\c2ccc[nH]2)c2ccccc2N1c1c(Cl)cccc1Cl")
"FALSE"
>>> class_assignment("O=C1/C(=C\\c2cccn2Cc2ccccc2)c2ccccc2N1c1c(Cl)cccc1Cl")
"TRUE"
>>> class_assignment("Cc1ccc(S(=O)(=O)n2cccc2/C=C2\\C(=O)N(c3c(Cl)cccc3Cl)c3ccccc32)cc1")
"FALSE"
>>> class_assignment("O=C1/C(=C\\c2cccn2C(=O)c2ccc(Cl)s2)c2ccccc2N1c1c(Cl)cccc1Cl")
"FALSE"

Hey, just so you know, these numbers are from ChEMBL document CHEMBL4177730.
